Ref: paper PMC11292843

targetOrTestSystem: hPTP1B1–400 (Homo sapiens)
protocolDetails: PTP1B inhibition assay (pNPP, spectrocolorimetric), long form
measurementKind: IC50 (µM)
One number for each entry, in µM.

q: Please indicate IC50 recorded for C[C@H](CCC(=O)O)[C@H]1CC[C@H]2[C@@H]3CC[C@@H]4C[C@H](O)CC[C@]4(C)[C@H]3CC[C@]12C [LA, lithocholic acid, reference compound]
a: 14

---

targetOrTestSystem: hPTP1B1–400 (Homo sapiens, UniProt P18031)
protocolDetails: Enzyme kinetics (Lineweaver–Burk, varying pNPP)
measurementConditions: hPTP1B1–400, pNPP 0.1–0.5 mM
What Km was measured for each of the following?
Answers are plain numbers, in µM.

Examples with their reported Km follow.
compound="C[C@H](CCC(=O)O)C1CCC2C3CC[C@@H]4C[C@](O)(CNCc5cccc(C(=O)O)c5)CC[C@]4(C)C3CC[C@@]21C.Cl (some centres unmarked)" measurementkind=Km value=480
compound="C[C@H](CCC(=O)O)C1CCC2C3CC[C@@H]4C[C@](O)(CNCc5ccc(C(F)(F)F)cc5)CC[C@]4(C)C3CC[C@@]21C.Cl (some centres unmarked)" measurementkind=Km value=520

Need Km for each of these compounds.
1. C[C@H](CCC(=O)O)C1CCC2C3CC[C@@H]4C[C@](O)(CNCc5ccc(C(=O)O)cc5)CC[C@]4(C)C3CC[C@@]21C.Cl (some centres unmarked)
2. COc1ccc(CNC[C@]2(O)CC[C@]3(C)C4CC[C@@]5(C)C(CCC5[C@H](C)CCC(=O)O)C4CC[C@@H]3C2)cc1.Cl (some centres unmarked)
3. C[C@H](CCC(=O)O)C1CCC2C3CC[C@@H]4C[C@](O)(CNCc5cccc(C(F)(F)F)c5)CC[C@]4(C)C3CC[C@@]21C.Cl (some centres unmarked)
4. COc1cccc(CNC[C@]2(O)CC[C@]3(C)C4CC[C@@]5(C)C(CCC5[C@H](C)CCC(=O)O)C4CC[C@@H]3C2)c1.Cl (some centres unmarked)
5. C[C@H](CCC(=O)O)[C@H]1CC[C@H]2[C@@H]3CC[C@@H]4C[C@H](O)CC[C@]4(C)[C@H]3CC[C@]12C [LA, lithocholic acid, reference compound]
6. C[C@H](CCC(=O)O)C1CCC2C3CC[C@@H]4C[C@](O)(CNCc5cc(C(F)(F)F)cc(C(F)(F)F)c5)CC[C@]4(C)C3CC[C@@]21C.Cl (some centres unmarked)

a:
950
780
780
380
1200
1900

---

targetOrTestSystem: hPTP1B1–400 (Homo sapiens, UniProt P18031)
protocolDetails: PTP1B inhibition assay (pNPP, spectrocolorimetric), long form
measurementConditions: PTP1B IC50 ± SD, selectivity assay, hPTP1B1–400
What pIC50 was measured for each of the following?
Numbers only, as −log10 of the molar value.

Examples with their reported pIC50 follow.
compound="C[C@H](CCC(=O)O)C1CCC2C3CC[C@@H]4C[C@](O)(CNCc5cccc(C(F)(F)F)c5)CC[C@]4(C)C3CC[C@@]21C.Cl (stereo partly shown)" targetortestsystem="hPTP1B1–400 (Homo sapiens, UniProt P18031)" measurementkind=pIC50 value=5.14
compound="C[C@H](CCC(=O)O)C1CCC2C3CC[C@@H]4C[C@](O)(CNCc5ccc(C(F)(F)F)cc5)CC[C@]4(C)C3CC[C@@]21C.Cl (stereo partly shown)" targetortestsystem="hPTP1B1–400 (Homo sapiens, UniProt P18031)" measurementkind=pIC50 value=5.28
compound="C[C@H](CCC(=O)O)C1CCC2C3CC[C@@H]4C[C@](O)(CNCc5cc(C(F)(F)F)cc(C(F)(F)F)c5)CC[C@]4(C)C3CC[C@@]21C.Cl (stereo partly shown)" targetortestsystem="hPTP1B1–400 (Homo sapiens, UniProt P18031)" measurementkind=pIC50 value=4.96

Kindly consider the entry below.
q: Please indicate pIC50 recorded for O=C(O)C(=O)Nc1sc2c(c1C(=O)O)CCNC2 [TCS401, reference compound]
a: 5.09

---

targetOrTestSystem: hPTP1B1–400 (Homo sapiens)
protocolDetails: PTP1B inhibition assay (pNPP, spectrocolorimetric), long form
measurementConditions: IC50 ± SD hPTP1B1–400, hPTP1B 66 nM, pNPP 0.5 mM, 37 °C, 15 min
What IC50 was measured for each of the following?
One number for each entry, in µM.

compound="C[C@H](CCC(=O)O)C1CCC2C3CC[C@@H]4C[C@](O)(CNCc5ccc(C(F)(F)F)cc5)CC[C@]4(C)C3CC[C@@]21C.Cl (stereo partly drawn)" measurementkind=IC50 value=5.3

q: Please indicate IC50 recorded for C[C@H](CCC(=O)O)C1CCC2C3CC[C@@H]4C[C@](O)(CNCc5cccc(C(F)(F)F)c5)CC[C@]4(C)C3CC[C@@]21C.Cl (stereo partly drawn)
a: 7.3

---

targetOrTestSystem: hPTP1B1–400 (Homo sapiens, UniProt P18031)
Sequence (P18031 1-400): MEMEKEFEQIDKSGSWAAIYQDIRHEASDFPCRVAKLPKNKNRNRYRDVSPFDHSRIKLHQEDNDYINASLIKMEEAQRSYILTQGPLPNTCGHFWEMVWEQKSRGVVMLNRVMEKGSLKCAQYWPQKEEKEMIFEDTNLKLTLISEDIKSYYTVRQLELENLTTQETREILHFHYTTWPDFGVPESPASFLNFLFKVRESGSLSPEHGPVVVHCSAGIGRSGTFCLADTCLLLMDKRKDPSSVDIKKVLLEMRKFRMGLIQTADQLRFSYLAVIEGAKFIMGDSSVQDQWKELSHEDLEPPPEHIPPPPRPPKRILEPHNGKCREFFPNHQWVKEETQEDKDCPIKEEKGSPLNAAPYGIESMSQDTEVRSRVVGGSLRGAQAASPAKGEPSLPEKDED
Could you mark each record 1 if its Ki falls strictly under 6 µM, and -1 if it equals or exceeds it?

# count of solved cases: 3
compound="C[C@H](CCC(=O)O)C1CCC2C3CC[C@@H]4C[C@](O)(CNCc5cccc(C(F)(F)F)c5)CC[C@]4(C)C3CC[C@@]21C.Cl (some centres unmarked) [compound 6m]" class=1
compound="C[C@H](CCC(=O)O)C1CCC2C3CC[C@@H]4C[C@](O)(CNCc5cccc(C(=O)O)c5)CC[C@]4(C)C3CC[C@@]21C.Cl (some centres unmarked) [compound 6k]" class=-1
compound="COc1cccc(CNC[C@]2(O)CC[C@]3(C)C4CC[C@@]5(C)C(CCC5[C@H](C)CCC(=O)O)C4CC[C@@H]3C2)c1.Cl (some centres unmarked) [compound 6c]" class=1

q: Here's an entry: COc1ccc(CNC[C@]2(O)CC[C@]3(C)C4CC[C@@]5(C)C(CCC5[C@H](C)CCC(=O)O)C4CC[C@@H]3C2)cc1.Cl (some centres unmarked) [compound 6d] . Is its Ki below 6 µM?
a: -1

q: Here's an entry: C[C@H](CCC(=O)O)[C@H]1CC[C@H]2[C@@H]3CC[C@@H]4C[C@H](O)CC[C@]4(C)[C@H]3CC[C@]12C [LA, lithocholic acid, reference compound] . Is its Ki below 6 µM?
a: 1

---

targetOrTestSystem: hPTP1B1–400 (Homo sapiens, UniProt P18031)
protocolDetails: Enzyme kinetics (Lineweaver–Burk, varying pNPP)
measurementConditions: hPTP1B1–400, pNPP 0.1–0.5 mM
Parameter threshold = 1 mM/min. Response is Satisfied when Vmax meets or exceeds it, else Not satisfied.

# count of solved cases: 2
compound="C[C@H](CCC(=O)O)C1CCC2C3CC[C@@H]4C[C@](O)(CNCc5cccc(C(=O)O)c5)CC[C@]4(C)C3CC[C@@]21C.Cl (some centres unmarked) [compound 6k]" targetortestsystem="hPTP1B1–400 (Homo sapiens, UniProt P18031)" class="Not satisfied"
compound="C[C@H](CCC(=O)O)C1CCC2C3CC[C@@H]4C[C@](O)(CNCc5cc(C(F)(F)F)cc(C(F)(F)F)c5)CC[C@]4(C)C3CC[C@@]21C.Cl (some centres unmarked) [compound 6o]" targetortestsystem="hPTP1B1–400 (Homo sapiens, UniProt P18031)" class=Satisfied

q: Does COc1cccc(CNC[C@]2(O)CC[C@]3(C)C4CC[C@@]5(C)C(CCC5[C@H](C)CCC(=O)O)C4CC[C@@H]3C2)c1.Cl (some centres unmarked) [compound 6c] have a reported Vmax of at least 1 mM/min?
a: Not satisfied

q: Does C[C@H](CCC(=O)O)[C@H]1CC[C@H]2[C@@H]3CC[C@@H]4C[C@H](O)CC[C@]4(C)[C@H]3CC[C@]12C [LA, lithocholic acid, reference compound] have a reported Vmax of at least 1 mM/min?
a: Satisfied

q: Does COc1ccc(CNC[C@]2(O)CC[C@]3(C)C4CC[C@@]5(C)C(CCC5[C@H](C)CCC(=O)O)C4CC[C@@H]3C2)cc1.Cl (some centres unmarked) [compound 6d] have a reported Vmax of at least 1 mM/min?
a: Satisfied
